Test: BSK_3C_VCAM1: BioMAP Diversity Plus: 3C Assay for Vascular cell adhesion molecule 1 (VCAM1) Biomarker Activity (AID 2282999)
Conditions: BioMAP 3C HUVEC, VCAM1 ELISA, cytokine-stimulated; actives raise or lower the signal
Calls of active or inactive are those of the source. Rule for the calls: active = hit-call score of the fitted dose curve at least 0.9, where 1 is the maximum; inactive = score below 0.9.
Choose one outcome from this list and give only that: 1.0 for active, 0.0 for inactive

CCCCC(CC)COCC1CO1 (stereo not given) ... 0.0
CCCCCCCCc1ccc(Nc2ccc(CCCCCCCC)cc2)cc1 ... 0.0
CN1C(=O)N(C)C(O)C1O (stereo not given) ... 0.0
CO[Si](OC)(OC)c1ccccc1 ... 0.0
O=C(Nc1ccccc1SSc1ccccc1NC(=O)c1ccccc1)c1ccccc1 ... 1.0

Ask: Record lookup: outcome of this test for CCCCC/C=C\C/C=C\CCCCCCCC(=O)OC ?
Reply: 1.0

Ask: Record lookup: outcome of this test for C=CCOc1c(Br)cc(Br)cc1Br ?
Reply: 1.0

Ask: Record lookup: outcome of this test for C#CC1(O)CC[C@H]2[C@@H]3CCC4=CCCC[C@@H]4[C@H]3CC[C@@]21C (stereo not given in full) ?
Reply: 1.0

Ask: Record lookup: outcome of this test for O=C1CCCN1CCO ?
Reply: 0.0
